Values from paper PMC8348070

test: MTT cytotoxicity (cell viability) assay; type: cell-based, human; conditions: human, HepG2 cells; HepG2 cell line, 48 h, Figure 6
This listing pairs compounds with measured IC50 at 48 h.
// unit must come after the numeric part

compound="CCOC(=O)C1=C(C)NC(=S)NC1c1ccc(F)cc1 (centres unmarked)" readout_type="IC50 at 48 h" reported="18.7 µg/mL"

Entry under test: CCOC(=O)C1=C(C)NC(=O)NC1c1cccc(F)c1 (centres unmarked) . Its IC50 at 48 h was 11.3 µg/mL

###

assay: MTT cytotoxicity (cell viability) assay; format: cell-based, human; settings: human; HepG2 cell line, 48 h, Figure 6
This listing pairs molecules with measured IC50 at 48 h.
Number in µg/mL, nothing else.

molecule="CCOC(=O)C1=C(C)NC(=S)NC1c1ccccc1F (centres unmarked)" readout_type="IC50 at 48 h" reported=25.5
molecule="CCOC(=O)C1=C(C)NC(=O)NC1c1ccccc1F (centres unmarked)" readout_type="IC50 at 48 h" reported=16
molecule="CCOC(=O)C1=C(C)NC(=S)NC1c1cccc(Cl)c1 (centres unmarked)" readout_type="IC50 at 48 h" reported=13
molecule="CCOC(=O)C1=C(C)NC(=O)NC1c1ccc(F)cc1 (centres unmarked)" readout_type="IC50 at 48 h" reported=7.29

Next molecule, please.
Entry under test: CCOC(=O)C1=C(C)NC(=S)NC1c1cccc(F)c1 (centres unmarked) . Its IC50 at 48 h was 5.35
